Assay: Oral bioavailability in cynomolgus monkey
Type: ADME, organism-based, Macaca fascicularis
Settings: in vivo

{"chemical-smiles": "CC(C)[C@@H](CS(=O)(=O)C(C)C)N1C(=O)[C@@](C)(CC(=O)O)C[C@H](c2cccc(Cl)c2)[C@H]1c1ccc(Cl)cc1", "units-symbol": "%", "bioavailability": 51}

// provenance: ChEMBL document CHEMBL3124826
